The molecules below each have a reported pIC50 tested on PIP4K2B (Homo sapiens); the values come from various publications.
Sequence (P78356 whole entry, species assumed): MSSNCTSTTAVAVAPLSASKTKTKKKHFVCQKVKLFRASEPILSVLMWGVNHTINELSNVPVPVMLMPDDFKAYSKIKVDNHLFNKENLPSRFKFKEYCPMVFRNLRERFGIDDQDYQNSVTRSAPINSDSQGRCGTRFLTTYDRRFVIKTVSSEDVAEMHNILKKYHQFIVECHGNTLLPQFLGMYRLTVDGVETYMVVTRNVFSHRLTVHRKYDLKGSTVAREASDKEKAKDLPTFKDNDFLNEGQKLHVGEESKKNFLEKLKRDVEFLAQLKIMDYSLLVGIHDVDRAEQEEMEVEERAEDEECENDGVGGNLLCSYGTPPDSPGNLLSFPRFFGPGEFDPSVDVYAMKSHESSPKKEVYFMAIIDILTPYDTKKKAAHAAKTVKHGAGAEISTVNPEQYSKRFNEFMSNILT
pIC50: −log10 of the molar value.

[[record]]
molecule = "CC1C[C@H]2COc3ncc(Nc4cc5c(cn4)-c4ccc(N6CCCC6=O)cc4OC5C)cc3N2C1=O (some centres unmarked)"
readout_name = "pIC50"
reading = "8.00 to 9.00"

[[record]]
molecule = "CN(C)C(=O)c1ccc(-c2cc(-c3cnc4c(c3)c(-c3cccnc3)nn4C)cnc2N)nc1"
readout_name = "pIC50"
reading = "< 5.30"

[[record]]
molecule = "CN1CCn2c(cc3c(-c4cncc(-c5ccc(-c6nncn6CCC6CC6)cc5)c4)ccnc32)C1=O"
readout_name = "pIC50"
reading = "7.00 to 8.00"

[[record]]
molecule = "C[C@@H]1CCC(=O)N1c1ccc2c(c1)OC(C)(C)c1nc(Nc3cnc4c(c3)N(C(=O)NC3CC3)CCO4)ncc1-2"
readout_name = "pIC50"
reading = "8.00 to 9.00"

[[record]]
molecule = "CN(C(=O)c1cc2c(-c3cncc(-c4ccc(N5CCCC5=O)cc4)c3)ccnc2[nH]1)c1cccnc1"
readout_name = "pIC50"
reading = "6.00 to 7.00"

[[record]]
molecule = "C[C@H]1Oc2cc(N3CCCC3=O)ccc2-c2cnc(Nc3cnc4c(c3)N3C(=O)CC[C@H]3CO4)cc21"
readout_name = "pIC50"
reading = "7.00 to 8.00"


Q: What measured pIC50 goes with `Cc1cccc2c1CC(=O)N2c1ccc(-c2cncc(-c3ccnc4c3cc3n4CCN(C)C3=O)c2)cc1` ?
Result: < 5.30

Q: I have this molecule here, CC1Oc2cc(N3CCCC3=O)ccc2-c2cnc(Nc3cnc4c(c3)N(S(=O)(=O)C(C)C)CCO4)cc21 (centres unmarked) , and I need its recorded pIC50.
Result: 7.00 to 8.00

Q: What value of pIC50 has been recorded for this entry: CC1Oc2cc(N3CCCC3=O)ccc2-c2cnc(Nc3cncc(NC(=O)C(O)Cc4ccccc4)c3)cc21 (centres unmarked)
Result: 7.00 to 8.00

Q: Look at this molecule and give its reported pIC50. `Nc1nc(Nc2cnc3c(c2)N2C(=O)C4(CC4)C[C@H]2CO3)ncc1-c1ccc(N2CCCC2=O)cc1`
Result: 8.00 to 9.00

Q: # query: pIC50 of entry `COCCNC(=O)c1cc2c(-c3cnc(N)c(-c4ccc(N5CCCC5=O)cc4)c3)ccnc2o1`
Result: 8.00 to 9.00

Q: Recorded pIC50 for `O=C1CCCN1c1cc2c(cc1F)-c1cnc(Nc3cnc4c(c3)OCCO4)cc1CO2` , please?
Result: 7.00 to 8.00

Q: Can you look up the measured pIC50 of CC(=O)Nc1cncc(Nc2cc3c(cn2)-c2ccc(N4CCCC4=O)cc2OC3C)c1 (centres unmarked) for me?
Result: 7.00 to 8.00

Q: Param item = `CC1(C)Oc2cc(N3CCCC3=O)ccc2-c2cnc(Nc3cnc4c(c3)N3C(=O)CC[C@H]3CO4)nc21` ; retrieve measured pIC50.
Result: 8.00 to 9.00

Q: Name the reported pIC50 value associated with the molecule `COC(=O)N1CCOc2ncc(Nc3ccc(-c4ccc(C(=O)N(C)C)cc4)cn3)cc21`
Result: 7.00 to 8.00

Q: Would you kindly share the measured pIC50 for `O=C1CCCN1c1ccc(-c2cncc(-c3csc4ncccc34)c2)cc1` ?
Result: 6.00 to 7.00

Q: Give the measured pIC50 of `O=C(Nc1cccnc1)c1cc2c(-c3cncc(-c4ccc(N5CCCC5=O)cc4)c3)ccnc2[nH]1` .
Result: 7.00 to 8.00

Q: Given the molecule `O=C(NCCc1cnccn1)c1cc2c(-c3cncc(-c4ccc(N5CCCC5=O)cc4)c3)ccnc2[nH]1` , what is its reported pIC50?
Result: 7.00 to 8.00

Q: Requested read-out: pIC50. Entry: CC1Oc2cc(N3CCCC3=O)ccc2-c2cnc(Nc3cnc4c(c3)N3C(=O)C5(CC5)C[C@H]3CO4)cc21 (some centres unmarked)
Result: 8.00 to 9.00

Q: Data request, read-out pIC50, for CC1Oc2cc(N3CCCC3=O)ccc2-c2cnc(Nc3cncc(NC(=O)c4ccn5ccnc5c4)c3)cc21 (centres unmarked)
Result: 7.00 to 8.00
